- assayExplanation: Stability in human liver microsomes assessed as parent compound remaining
- Type: ADME, Microsome
recordedEndpoint: Stability (%)

> print(dat)
                                smilesentry  recordedendpoint  reportedmeasurement
1  CC(C)(O)[C@H](F)CNC(=O)c1cnc(Nc2ccc3ncsc3c2)cc1NC1CC1         Stability                   90
2  CC(C)(O)CCNC(=O)c1cnc(Nc2ccc3ncsc3c2)cc1NC1CC1         Stability                   65
3    CCNC(=O)c1cnc(Nc2ccc3ncsc3c2)cc1NC(C)C         Stability                   74
4  CC(C)Nc1cc(Nc2ccc3ncsc3c2)ncc1C(=O)NCC(F)(F)C(C)(C)O         Stability                   71

[A] Cc1nc2ccc(Nc3cc(NC(C)C)c(C(=O)NC[C@@H](F)C(C)(C)O)cn3)cc2s1
[B] CNC(=O)c1cnc(Nc2ccc3ncsc3c2)cc1N[C@H](CO)Cc1ccccc1
[C] CC(C)Nc1cc(Nc2ccc3ncsc3c2)ncc1C(=O)NCCc1ccc(S(N)(=O)=O)cc1
IN: Put the entries in order of Stability, starting with the largest number. The labels, placed in the requested order, form the answer.
OUT: A, B, C
(A: 92%, B: 46%, C: 17%)

###

- assayExplanation: Clearance in mouse at 2 mg/kg, iv administered as infusion or 10 mg/kg, po via gavage measured up to 24 hrs by LC-MS analysis
- Format: ADME, organism-based
- conditionsUsed: in vivo
recordedEndpoint: clearance (mL/min/kg)
Please give a number only; it is taken to be in mL/min/kg.

IN: Identify clearance associated with the compound CC(C)(O)[C@H](F)CNC(=O)c1cnc(Nc2ccc3ncsc3c2)cc1NC1CC1
OUT: 47

###

- assayExplanation: Oral bioavailability in mouse at 10 mg/kg administered via gavage measured up to 24 hrs by LC-MS analysis
- Format: ADME, organism-based
- conditionsUsed: in vivo
recordedEndpoint: bioavailability (%)
Please give a number only; it is taken to be in %.

IN: Identify bioavailability associated with the compound CC(C)(O)[C@H](F)CNC(=O)c1cnc(Nc2ccc3ncsc3c2)cc1NC1CC1
OUT: 40

###

- assaySystem: Tyrosine-protein kinase receptor TYRO3 (Homo sapiens, UniProt Q06418)
- Sequence (Q06418 whole entry): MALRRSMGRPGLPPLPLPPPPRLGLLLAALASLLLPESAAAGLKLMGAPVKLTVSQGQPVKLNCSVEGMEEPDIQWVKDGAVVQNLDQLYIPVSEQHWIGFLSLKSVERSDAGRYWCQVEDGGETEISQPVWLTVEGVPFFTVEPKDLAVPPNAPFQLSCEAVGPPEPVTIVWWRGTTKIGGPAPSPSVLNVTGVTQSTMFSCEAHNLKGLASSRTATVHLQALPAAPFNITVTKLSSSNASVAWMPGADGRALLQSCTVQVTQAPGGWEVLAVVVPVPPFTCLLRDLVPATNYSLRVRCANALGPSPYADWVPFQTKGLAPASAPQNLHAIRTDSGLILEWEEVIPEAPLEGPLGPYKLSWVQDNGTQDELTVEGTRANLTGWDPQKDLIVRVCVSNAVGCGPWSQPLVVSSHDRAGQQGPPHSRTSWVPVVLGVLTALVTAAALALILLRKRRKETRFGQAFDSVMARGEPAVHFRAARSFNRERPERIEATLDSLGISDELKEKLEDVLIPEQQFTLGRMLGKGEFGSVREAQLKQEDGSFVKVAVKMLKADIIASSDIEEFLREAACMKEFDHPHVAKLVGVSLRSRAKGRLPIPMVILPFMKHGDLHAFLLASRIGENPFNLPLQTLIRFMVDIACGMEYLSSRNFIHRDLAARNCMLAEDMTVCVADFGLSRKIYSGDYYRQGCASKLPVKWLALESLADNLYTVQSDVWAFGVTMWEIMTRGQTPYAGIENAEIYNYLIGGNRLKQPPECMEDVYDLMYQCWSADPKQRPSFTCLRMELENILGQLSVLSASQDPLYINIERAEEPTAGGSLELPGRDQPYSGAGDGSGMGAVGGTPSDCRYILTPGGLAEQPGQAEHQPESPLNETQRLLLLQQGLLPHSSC
recordedEndpoint: IC50 (nM)
Please give a number only; it is taken to be in nM.

IN: Identify IC50 associated with the molecule CC(C)Nc1cc(Nc2nc3ccnn3cc2F)ncc1C(=O)NC[C@@H](F)C(C)(C)O
OUT: 980
